- System: GH3-TRE-Luc cell line
- stated_conditions: read-out: AC50 (uM) modified / 1000; Tox21_110001=Tox21_301832; viability, 1 nM T3 present, 24 h
measured_quantity: CC50 (µM)
Please give a number only; it is taken to be in µM.

Exercise: Return reported CC50; argument: COC(=O)C1=C(C)NC(C)=C(C(=O)OCCN(C)Cc2ccccc2)C1c1cccc([N+](=O)[O-])c1 (stereo not shown)
Solution: 22.2

---

- protocol_summary: in vitro
- stated_conditions: rat, gh3-tre-luc cells, AC50 (uM) modified / 1000, Tox21_110001=Tox21_201640; viability, 1 nM T3 present, 24 h
measured_quantity: CC50 at 24 h

Exercise: Return reported CC50 at 24 h; argument: C=C(C)CCl [3-Chloro-2-methylpropene]
Solution: > 90 µM

---

- Tested on: GH3-TRE-Luc cell line
- stated_conditions: read-out: AC50 (uM) modified / 1000; Tox21_110001=Tox21_301828; viability, 1 nM T3 present, 24 h
measured_quantity: CC50 (µM)
Please give a number only; it is taken to be in µM.

Exercise: Return reported CC50; argument: COC(=O)Nc1nc2ccc(Sc3ccccc3)cc2[nH]1
Solution: 1.53

---

- protocol_summary: in vitro
- stated_conditions: rat, gh3-tre-luc cells, AC50 (uM) modified / 1000, Tox21_110001=Tox21_301428; viability, 1 nM T3 present, 24 h
measured_quantity: CC50 at 24 h

Exercise: Return reported CC50 at 24 h; argument: COC(=O)C1(O)c2ccccc2-c2ccccc21
Solution: > 90 µM

---

- protocol_summary: in vitro
- stated_conditions: rat, gh3-tre-luc cells, AC50 (uM) modified / 1000
measured_quantity: CC50 at 24 h

Examples with their reported CC50 at 24 h follow.
Exercise: Return reported CC50 at 24 h; argument: O=S(=O)(c1ccccc1)c1ccc(Cl)cc1
Solution: > 90 µM

Exercise: Return reported CC50 at 24 h; argument: CC(=O)OC(C)c1ccccc1 (racemic) [(+/-)-alpha-Methylbenzyl acetate]
Solution: > 90 µM

Exercise: Return reported CC50 at 24 h; argument: Clc1cc(Cl)c(Cl)nc1Cl
Solution: > 90 µM

Exercise: Return reported CC50 at 24 h; argument: c1ccc2c(c1)OCC(C1=NCCN1)O2 (stereo not drawn)
Solution: 7.8 µM

Exercise: Return reported CC50 at 24 h; argument: CCCOc1nn(C(=O)NS(=O)(=O)c2ccccc2C(=O)OC)c(=O)n1C [Propoxycarbazone-sodium]
Solution: > 90 µM

***
Exercise: Return reported CC50 at 24 h; argument: CN1C(=O)N(c2ccccc2Br)Cc2cnc(Nc3ccc4c(c3)OCC(CO)O4)nc21 (stereo not drawn)
Solution: 37.2 µM

Exercise: Return reported CC50 at 24 h; argument: CCCCCCCCSC(=O)Oc1cc(Cl)nnc1-c1ccccc1 [Pyridate]
Solution: > 90 µM

Exercise: Return reported CC50 at 24 h; argument: O=S(=O)(O)c1ccc(O)c2ncccc12
Solution: > 90 µM

Exercise: Return reported CC50 at 24 h; argument: CCCCCCCC/C=C\CCCCCCCC(=O)OC[C@@H](O)[C@H]1OC[C@H](O)[C@H]1O [Sorbitan, mono-(9Z)-9-octadecenoate]
Solution: > 50 µM
